The reported measurements were obtained from PubChem BioAssay.

biological target: Calmodulin-1 (Homo sapiens) (UniProt P0DP23); assay: CALM1 binders on microarrays, EGTA buffer, profiling panel, biochemical, small-molecule microarray, Cy5-labelled CALM1 (AID 1111); conditions: Cy5-CALM1 binding fluorescence, higher = more signal;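 note: labelled calmodulin applied in Tris saline Tween buffer holding calcium plus EGTA and DTT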
Record form. Attribute: composite z-score. Fill in for each entry.
Numbers only.

CC(CCN1CCc2nc(-c3ccccc3)c(-c3ccccc3)cc2C1)=NO[C@@H](C)c1cn([C@H](CO)Cc2ccccc2)nn1: 0.0845
C=CCN1C(=O)[C@]2(O[C@H](CCn3cc(CCO)nn3)[C@@H]([Si](C)(C)c3ccc(OC)cc3)[C@@H]2C)c2cc(N3CCOC3=O)ccc21: 0.504
O=C1O[C@@H](c2ccccc2)[C@@H](c2ccccc2)N2[C@@H](c3ccc(OCCO)cc3)[C@]3(C(=O)Nc4ccccc43)[C@@H](C(=O)N3CCN(c4ncccn4)CC3)[C@H]12: 0.0357
CCOC(=O)CCN1C(=O)[C@H]2[C@H]3[C@H](O)[C@H](O)CC(=NOC[C@@H](O)COCc4ccco4)[C@@H]3CC[C@H]2C1=O: 0.2
CCCCCN1CC=CC23O[C@@H]4C=CCOC(=O)[C@@H]4[C@H]2C(=O)N(CCCCCCO)[C@@H]3C1=O (stereo not given in full): -0.284

Consider the following items and state reported composite z-score for each.
1. CC(=O)C[C@H](O)[C@@H](NC(=O)OC(C)(C)C)C(C)C
2. C[C@@H]1C=CCC(=O)OC[C@H](C)C(=O)N[C@@H](C)C(=O)OC1

Result:
-0.292
-0.556

---

experiment: binders from COS7 lysate, DM2A8 probe, primary screen, torsin A project, cell lysate, small-molecule microarray, fluorescence 635/667 (AID 1065); details: higher = more signal, COS7 lysate expressing mutant human TOR1A
Label y for high-side composite z-score (at or above 0.5) and n for low-side composite z-score (below it).

CO[C@@H]1COC(=O)CCC[C@@H](C)[C@H](OC)COC(=O)[C@H](Cc2ccccc2)NC(=O)CC=C[C@H]1C: y
COC(=O)CC=C[C@@H](C)[C@@H](C=NO[C@H](C)c1cn([C@@H]2COC[C@H]2O)nn1)OC: y
COC(=O)CC=C[C@H](C)[C@H](CO)NS(=O)(=O)c1ccc(C)cc1: n
CC(=O)OC[C@H]1O[C@H](CCON=C[C@@H](C)[C@H](OCc2ccccc2)C(C)C)C=C[C@@H]1OC(C)=O: y
C=CC[C@@H]1C=C[C@H](ON=Cc2ccc(C(=O)N3[C@H](c4ccc(C)cc4)[C@@H](C)CC[C@H]3C(=O)OC)cc2)[C@@H](CO)O1: y
CC=CC1=C(CO)[C@H](O)[C@H]2O[C@H]2[C@H]1O: n
CC(=O)OC[C@H]1O[C@H](CC=NOC[C@@H](C)[C@H](OCc2ccccc2)C(C)C)C=C[C@@H]1OC(C)=O: n

Problem: Say whether CCOC(=O)CCN1C(=O)[C@H]2[C@H]3[C@H](O)[C@H](O)CC(=NOC[C@@H](O)COCc4ccco4)[C@@H]3CC[C@H]2C1=O shows composite z-score of 0.5 or more.
Result: n

---

target: Calmodulin-1 (Homo sapiens) (UniProt P0DP23); assay: calcium-bound CALM1 binders on microarrays, profiling panel, artefact control for SMM control-protein annotation, biochemical, small-molecule microarray, Cy5-labelled CALM1, plus calcium (AID 1112); settings: Cy5-CALM1 binding fluorescence, higher = more signal;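 note: score merges spot fluorescence with signal to noise from triplicate slides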
Record form. Attribute: composite z-score. Fill in for each entry.
Answers are plain numbers.

Before answering, review these 2 worked examples.
C#C[C@@H](CC)O[Si](C#Cc1ccc(Oc2ccccc2)cc1)(C(C)C)C(C)C: -0.657
COCCOC(=O)N1C(=O)[C@@]2(c3cc(C#CC4(O)CCCCCC4)ccc31)[C@H](c1ccc(OCCO)cc1)N1[C@H](c3ccccc3)[C@H](c3ccccc3)OC(=O)[C@H]1[C@@H]2C(=O)NC[C@H](O)c1ccccc1: 0.311

Consider the following items and state reported composite z-score for each.
1. CCCNC(=O)[C@@H]1c2ccccc2C(=O)N(Cc2ccccc2Cl)[C@H]1c1ccc(CO)cc1
2. O=C1C2C=CC(C(O)c3ccc([N+](=O)[O-])cc3)N(Nc3ccc([N+](=O)[O-])cc3)C2C(=O)N1c1ccccc1 (stereo unspecified)
3. NCCCCCNC(=O)[C@@H]1C[C@@H]2C(=O)N3CCC[C@H]3C(=O)N2[C@@H]1c1cccc(OCCO)c1
4. O=C(NN=C1C[C@@H](O)[C@@H](O)[C@@H]2[C@@H]3C(=O)N(c4cccc(Oc5ccccc5)c4)C(=O)[C@@H]3CC[C@H]12)OCc1ccccc1
5. COCCCNC(=O)[C@@]1(Sc2ccc(C)cc2)CC(=O)N(Cc2ccccc2)[C@@H]1c1ccc(CO)cc1I
6. CCN1C(=O)[C@H]2[C@H]3[C@H](O)[C@H](O)CC(=NOCc4ccccc4)[C@H]3CC[C@H]2C1=O
7. CCc1cc2c(nc1CC)CCN(CCC(C)=NOC[C@@H](O)COCc1ccco1)C2

Result:
0.375
0.757
0.929
-0.312
0.214
-0.787
-1.77

Consider the following items and state reported composite z-score for each.
1. COC(=O)C1=CCC(c2cccc(Cl)c2)O1 (stereo unspecified)
2. CC(C)NC(=O)[C@@H]1c2ccccc2C(=O)N(CC23CC4CC(CC(C4)C2)C3)[C@H]1c1ccc(CO)cc1
3. COc1ccc(O[C@@H]2[C@H](O)CO[C@H]2C=CC#Cc2ccccc2)cc1
4. CN(C)CCCNC(=O)[C@@H]1c2ccccc2C(=O)N(Cc2ccccc2)[C@H]1c1ccc(CO)cc1
5. COCCOC(=O)N1C(=O)[C@@]2(c3cc(C#CCNC(N)=O)ccc31)[C@H](c1ccccc1OCCO)N1[C@H](c3ccccc3)[C@H](c3ccccc3)OC(=O)[C@H]1[C@@H]2C(=O)N1CCN(c2ncccn2)CC1
6. CCc1cc2c(nc1CC)CCN(CCC(C)=NOC(C)CN1CCCc3nc(C)c(C)cc31)C2 (stereo unspecified)

Result:
[-0.23, -0.291, -0.789, -0.981, 0.749, -0.544]

Consider the following items and state reported composite z-score for each.
1. COC(=O)c1c(CC[C@@H](CO)NC(=O)N[C@H](Cc2ccccc2)Cn2cc(-c3ccccc3N)nn2)oc(C(C)=O)c1C(=O)OC
2. O=C1[C@H]2[C@H]3[C@H](O)[C@H](O)CC(=NOCc4ccccc4)[C@H]3CC[C@H]2C(=O)N1c1cccc(Oc2ccccc2)c1
3. C[C@@H]1CCC2C(=O)N(Cc3ccccc3)C[C@@H](O)CN2[C@H]1c1ccc(Br)cc1 (stereo partly specified)
4. O=C1CCCC2OC12C(O)CCc1ccccc1 (stereo unspecified)
5. C=C(/C(=C/C[C@H](OC(C)=O)c1ccc(OCCO)cc1)c1cnc2ccccc2c1)C(C)C
6. CCOC(=O)NN=C1C[C@@H](O)[C@@H](O)[C@@H]2[C@@H]3C(=O)N(C4CCCCC4)C(=O)[C@@H]3CC[C@@H]12
7. CC(CCN1CCCCc2nc(C)c(C)cc21)=NOC(C)CN1CCCc2nc(C)c(C)cc21 (stereo unspecified)

Result:
1. -0.656
2. -0.177
3. -0.28
4. -0.552
5. -0.184
6. -0.401
7. -0.573

---

test system: Inhibin beta A chain (activin A); assay: INHBA (activin A) binders on microarrays, primary screen, biochemical, small-molecule microarray, 635 nm fluorescence scan (AID 1107); details: small-molecule microarray binding, higher = more signal;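 note: mouse activin A protein probed at 4.33 µg/mL on printed slides; score merges bound-protein fluorescence near 667 nm with spot signal-to-noise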
Quantity measured: composite z-score
Answers are plain numbers.

Before answering, review these 6 worked examples.
O=C1[C@H]2[C@H]3[C@H](O)[C@H](O)CC(=NOCc4ccccc4)[C@@H]3CC[C@H]2C(=O)N1C1CCCCC1: -0.28
NC(=O)NCC#Cc1ccc2c(c1)[C@]1(C(=O)N2)[C@H](c2ccc(O)cc2)N2[C@H](c3ccccc3)[C@H](c3ccccc3)OC(=O)[C@H]2[C@@H]1C(=O)N1CCCCCCC1: 1.4
O=C1c2ccccc2[C@@]2(Cc3ccccc3N(C3CC3)C2=O)[C@H](c2ccc(CO)cc2)N1Cc1ccccc1C(F)(F)F: 0.394
CC(C)=C1C(=O)C(c2ccccc2)=C2CN3C(=O)N(CCc4ccccc4)C(=O)[C@]3(Cc3ccc(F)cc3)[C@H]21: 0.51
CCOC(=O)[C@H](Cc1ccccc1)NC(=O)CCC1CC(OC(=O)NCc2ccc3c(c2)OCO3)CC2(CCCC(COC(=O)NCC(c3ccccc3)c3ccccc3)O2)O1 (stereo partly drawn): -0.0374
CCCCCN1CC=CC23O[C@@H]4C=CCOC(=O)[C@@H]4[C@H]2C(=O)N(CCCCCCO)[C@@H]3C1=O (stereo partly drawn): -0.395

Consider the following items and state reported composite z-score for each.
1. O=C1O[C@@H](c2ccccc2)[C@@H](c2ccccc2)N2[C@@H](c3ccccc3OCCO)[C@]3(C(=O)Nc4ccc(C#CCCO)cc43)[C@@H](C(=O)O)[C@H]12
2. CC(C)CON=C1C[C@@H](O)[C@@H](O)[C@@H]2[C@@H]3C(=O)N(Cc4ccccc4)C(=O)[C@@H]3CC[C@@H]12
3. CN(C)CCCNC(=O)[C@@H]1c2ccccc2C(=O)N(Cc2ccccc2)[C@H]1c1ccc(CO)cc1
4. CO[C@H]1COC(=O)[C@@H]2CCCN2C(=O)[C@@H](C)COC(=O)CC=C[C@@H]1C
5. CCc1cc2c(nc1CC)CCN(CCC(C)=NO[C@@H](C)c1cc(-c3c(C)cc(C)cc3C)no1)C2
6. CC(CCC(=O)OC[C@H]1O[C@H](C#Cc2ccccc2)C=C[C@@H]1Oc1ccc(C)cc1)=NO[C@@H](C)c1cn([C@H](CO)Cc2ccccc2)nn1
7. Cc1ccc(S[C@]2(C(=O)O)CC(=O)N(Cc3ccccc3)[C@@H]2c2ccc(CO)cc2I)cc1
8. CCOC(=O)NN=C1C[C@@H](O)[C@@H](O)[C@@H]2[C@@H]3C(=O)N(C[C@@H]4CCCO4)C(=O)[C@@H]3CC[C@@H]12

Result:
1.24
-0.269
1.33
-0.24
0.711
-0.146
0.84
-0.0039
